Provide the recorded kon for the entries that follow.
- experimentalTarget: T1, Cynomolgus monkey BCMA (cynomolgus monkey)
- T1 construct: Soluble analyte in SPR; also called cyBCMA; Cyno BCMA
- measurementDescription: SPR, IgG immobilised, cyno BCMA analyte
Provide the reading as a plain figure in M⁻¹ s⁻¹.

*Q* So what does the record say about kon for A02_Rd4_0.6nM_C01 (antibody, V domains shown, IgG; also called P5AC1) VH: EVQLLESGGGLVQPGGSLRLSCAASGFTFSSYAMNWVRQAPGKGLEWVSAILSSGGSTYYADSVKGRFTISRDNSKNTLYLQMNSLRAEDTAVYYCARYWPMDIWGQGTLVTVSS VL: EIVLTQSPGTLSLSPGERATLSCRGGQSVSSSYLAWYQQKPGQAPRLLMYDASIRATGIPDRFSGSGSGTDFTLTISRLEPEDFAVYYCQQYQSWPLTFGQGTKVEIK ?
*A* 2.39e+06

*Q* Another: C01_Rd4_6nM_C12 (antibody, V domains shown, IgG; also called PC1C12) VH: EVQLLESGGGLVQPGGSLRLSCAASGFTFSSYPMSWVRQAPGKGLEWVSAIGGSGGWSYYADSVKGRFTISRDNSKNTLYLQMNSLRAEDTAVYYCARYWPMDSWGQGTLVTVSS VL: EIVLTQSPGTLSLSPGERATLSCWLSQSVSSTYLAWYQQKPGQAPRLLIYDASSRAPGIPDRFSGSGSGTDFTLTISRLEPEDFAVYYCQQYSEWPLTFGQGTKVEIK
*A* 4.51e+06

*Q* Another: A02_Rd4_6nM_C23 (antibody, V domains shown, IgG) VH: EVQLLESGGGLVQPGGSLRLSCAASGFTFSSYAMNWVRQAPGKGLEWVSAISDSGGSGWYADSVKGRFTISRDNSKNTLYLQMNSLRAEDTAVYYCARYWPMSLWGQGTLVTVSS VL: EIVLTQSPGTLSLSPGERATLSCRASQSVSVEYLAWYQQKPGQAPRLLMYDASIRATGIPDRFSGSGSGTDFTLTISRLEPEDFAVYYCQQYARWPLTFGQGTKVEIK
*A* 2.63e+06
